- system-name: HMG-CoA reductase (Rattus norvegicus)
- Construct: solubilized enzyme preparations from liver microsomes from rats
- Sequence (P51639 whole entry): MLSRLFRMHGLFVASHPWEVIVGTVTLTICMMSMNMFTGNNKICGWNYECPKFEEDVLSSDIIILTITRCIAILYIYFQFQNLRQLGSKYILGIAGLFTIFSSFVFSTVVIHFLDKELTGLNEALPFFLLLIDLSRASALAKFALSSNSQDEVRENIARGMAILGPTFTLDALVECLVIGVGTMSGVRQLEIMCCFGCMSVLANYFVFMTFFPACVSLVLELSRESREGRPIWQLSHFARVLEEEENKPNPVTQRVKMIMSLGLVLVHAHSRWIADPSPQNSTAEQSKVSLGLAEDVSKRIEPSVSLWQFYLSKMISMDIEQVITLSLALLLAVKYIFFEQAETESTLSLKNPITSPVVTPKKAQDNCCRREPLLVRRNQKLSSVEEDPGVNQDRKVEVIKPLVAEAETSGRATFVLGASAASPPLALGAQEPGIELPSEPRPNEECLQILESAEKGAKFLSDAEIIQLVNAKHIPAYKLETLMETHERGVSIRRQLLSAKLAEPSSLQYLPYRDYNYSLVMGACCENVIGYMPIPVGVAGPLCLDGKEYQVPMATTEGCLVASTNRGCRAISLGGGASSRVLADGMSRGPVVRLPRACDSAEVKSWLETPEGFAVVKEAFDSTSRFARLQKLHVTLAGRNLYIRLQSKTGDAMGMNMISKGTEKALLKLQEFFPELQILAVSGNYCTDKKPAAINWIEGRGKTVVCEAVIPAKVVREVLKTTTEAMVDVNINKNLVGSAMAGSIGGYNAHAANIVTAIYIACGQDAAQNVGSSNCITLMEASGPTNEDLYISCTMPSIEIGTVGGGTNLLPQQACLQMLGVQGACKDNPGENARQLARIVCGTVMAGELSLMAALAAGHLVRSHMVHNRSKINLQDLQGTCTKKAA
- assay-info: HMG CoA reductase activity in enzyme preparations (solubilized enzyme preparations from liver microsomes of cholestyramine-induced rats, 14C-HMG-CoA substrate)
- measurement-parameters: solubilized rat liver microsomal enzyme; mean of 3 parallel samples; Table 1; read-out: IC50 for inhibition of HMG-CoA reductase
pIC50: −log10 of the molar value.
endpoint-name: pIC50

Query block: What is its pIC50 for HMG-CoA reductase (Rattus norvegicus)? Entry: CC(C)c1nc(-c2ccc(F)cc2)c(/C=C(\F)[C@@H]2C[C@@H](O)CC(=O)O2)c(C(C)C)n1
Result block: 8.74

a = CC(C)c1nc(-c2ccc(F)cc2)nc(-c2ccc(F)cc2)c1/C=C(\F)[C@@H]1C[C@@H](O)CC(=O)O1
b = CC(C)c1nc(-c2ccccc2)cc(-c2ccc(F)cc2)c1/C=C(\F)[C@@H]1C[C@@H](O)CC(=O)O1
Query block: Between these two entries, a and b , state which has the higher pIC50. Refer to your chosen entry by its label in the reply.
Result block: a

Hey, just so you know, these numbers are from patent US5204351A.
